assay: protein stability index of a GFP-peptide fusion (GPS, HEK-293T) (PSI 1-6); higher = more stable; details: treatment: MLN4924 1 uM, 8 h; c terminus: a fixed tail appended;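 further: 24-mer peptide tiles fused after GFP, lentivirally expressed, FACS-sorted into six equal bins by GFP/DsRed ratio, decoded by Illumina sequencing, PSI is the read-weighted mean bin number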
Note to self: values exactly at 3 are Y. So protein stability index at or above 3 is Y, below is N.

Entry EDTQTDADSSAQAAAQAPENFQEG [TAF7L] : is its protein stability index no less than 3?
Y

Entry SEAEEALYLIAKRNRKLKCTFSLT [SLC22A15] : is its protein stability index no less than 3?
N

Entry MEKGPVRAPAEKPRGARCSNGFPE [GCH1] : is its protein stability index no less than 3?
Y

Entry VGTAAVNMCLVATGGADAYYEMGI [IMPA1] : is its protein stability index no less than 3?
N

Entry LTHLVKLDLSKNKLQQLPADFGRL [LRRC59] : is its protein stability index no less than 3?
N

Entry CNLWDSHHPEVPQRILRIMCRLEE [HDAC6] : is its protein stability index no less than 3?
N

Entry KEACDQHGPDLYPKFKKWCDDYFF [CPOX] : is its protein stability index no less than 3?
N

Entry TDQLEFTVEPRLLVADLLYWKDTR [RTN2] : is its protein stability index no less than 3?
N

Entry RYEQGRFWPHLKASNWSTTGFGQG [HDAC6] : is its protein stability index no less than 3?
N

Entry ARRKSELPQDPHTKKALEAHCRAD [PPP2R5C] : is its protein stability index no less than 3?
Y

Entry MPLKWKTSSPAIWKFPVPVLKTSR [KLHL13] : is its protein stability index no less than 3?
N

Entry GDSASEEKSGSAEPFVLPASSVES [FBXO34] : is its protein stability index no less than 3?
Y

Entry KEMSKVWNDLRPKLSCLFAGPHST [SNX8] : is its protein stability index no less than 3?
N

Entry FRRAPSWRKRFRPREHHGRGGMLS [PPFIA4] : is its protein stability index no less than 3?
Y

Entry AKRNRLAPAHVDEQVFLYENARSG [ZBED1] : is its protein stability index no less than 3?
Y

Entry AAKRMRLEIYQSSQDEPIALDKQH [NOL4L] : is its protein stability index no less than 3?
Y

Entry VQTEDQYQFSYRAALEYLGSFDHY [PTPRD] : is its protein stability index no less than 3?
N

Entry FELEDSNEIFTQLYRTLFSVINNG [PDS5B] : is its protein stability index no less than 3?
N

Entry NATLTQYQLLATHVPTVWAIDQYR [RHOBTB2] : is its protein stability index no less than 3?
N

Entry NQHGIILKYIGMAKREINKLLKQK [ARL6IP1] : is its protein stability index no less than 3?
N

Entry PSMIATGSVGAAICGLQQDEEVSS [CCND2] : is its protein stability index no less than 3?
Y

Entry AERVTLADFKGVLQRPSYKFFFKS [DVL3] : is its protein stability index no less than 3?
N

Entry NSTGSGRGKKLMVLTEPILIETYT [TPRG1] : is its protein stability index no less than 3?
N

Entry HPDPAPFCADNPSELPPPMERTGG [DVL3] : is its protein stability index no less than 3?
Y

Entry PDANTWTALPPMNEARHNFGIVEI [GAN] : is its protein stability index no less than 3?
N

Entry GLRRVLDELTLARTDLEMQIEGLN [KRT15] : is its protein stability index no less than 3?
N

Entry GCGADSKKKRPPQPPEESQPPQSQ [PLK2] : is its protein stability index no less than 3?
Y

Entry KMNPKLKTLLAIGGWNFSTQKFTD [CHIT1] : is its protein stability index no less than 3?
N

Entry TFFCPNDTYNDMATLFFNPQESAI [CLCN6] : is its protein stability index no less than 3?
N

Entry LESIPSLSQSPEPGRRGDPDTAPP [RTN2] : is its protein stability index no less than 3?
Y

Entry GSPFGLEEPQWVPDKECRRCMQCD [ZFYVE21] : is its protein stability index no less than 3?
Y

Entry GERPEEGVAGGLNRNQGLNRLMLA [TCF25] : is its protein stability index no less than 3?
Y

Entry FQILKYLFQIDVYDFMNSAFSPIV [MIA2] : is its protein stability index no less than 3?
N

Entry TYEEAAAYIQCQFEDLNKRKDTKE [GNAI1] : is its protein stability index no less than 3?
Y

Entry GLALGGGLELALACDIRVAASSAK [AUH] : is its protein stability index no less than 3?
N

Entry VDLELFPSPDMECADVPLLTPSSK [ETS1] : is its protein stability index no less than 3?
Y

Entry DAGEESRVQVLKNEVRRGSPVLLG [TIAF1] : is its protein stability index no less than 3?
Y

Entry IFQIGVLGFGPTYVVLAYTLPPAS [SOAT1] : is its protein stability index no less than 3?
Y

Entry EDHIAHIIELLGSIPRHFALSGKY [SRPK2] : is its protein stability index no less than 3?
N

Entry PRMLRESGHGDAHLQEYAGNFQGI [FATE1] : is its protein stability index no less than 3?
Y

---

assay: protein stability index of a GFP-peptide fusion (GPS, HEK-293T) (PSI 1-6); higher = more stable; details: treatment: DMSO; c terminus: a fixed tail appended
OBSERVATION TYPE: protein stability index

Report protein stability index for TREWTQLKPNNLSCDLPEERYRHE [KLHDC10] please.
4.61

Report protein stability index for MAETSLLEAGASAASTAAALENLQ [TRIM39] please.
4.59

Report protein stability index for YDTFHTVADMMYFCQMLAVVETIN [HACD3] please.
3.08

Report protein stability index for MDRSLVQDAPLSDCTETIEGLELT [ADD1] please.
5.27

Report protein stability index for DEMYEVRIAAVEALCMLAQSSPSF [INTS4] please.
2.69

Report protein stability index for KPEDTAEDLTAKRKRMKMDKTCSK [FAM9B] please.
5.3

Report protein stability index for TDNQVRLRKRKEIREDRDRARLDS [DLC1] please.
5.18

Report protein stability index for FSFLGLLALGVSLLCNAITGITLL [PTGFR] please.
2.77

Report protein stability index for RLQHICELFIITQLQSMPSRELAS [RHOBTB3] please.
3.19

Report protein stability index for TKKKKKTIVTDVFQGSMRIFTKKL [USP39] please.
2.49

Report protein stability index for DPLTYKSRLMVVVKMDSSIQPGPF [RHOBTB2] please.
2.05

Report protein stability index for NTKNEISELTRLIQRIRSEIENVK [KRT71] please.
2.83

Report protein stability index for TAVAQAPPAVASSSLFDLSVLKLH [SERTAD1] please.
3.17

Report protein stability index for TGFPQYAQLYEDFLFPIDISLVKR [DLC1] please.
2.37

Report protein stability index for DWVMWAVNEFSLKGVDFQKFCMNG [ETS1] please.
3.16

Report protein stability index for VMSIPDVIRLKQEQHVHNEKSVLK [PRKX] please.
4.18

Report protein stability index for TFDTGCLTLSQYILLDPILMFFIM [POMT2] please.
2.35

Report protein stability index for LPSLRTVSSSVIEQLFFVRLVGKT [NR2F2] please.
2.44

Report protein stability index for GSGAASSSGEDKENDGFVFKMPWK [CDC25B] please.
4.03

Report protein stability index for SPSKTDGKELAGTMDGEGTLFQTE [PBXIP1] please.
5.31

Report protein stability index for GFTSYLGFGDEDTGLELIAEESNP [MIA2] please.
4.61

Report protein stability index for EDTPSDNDSGICMSPESYLGSPQH [ATF4] please.
4.66

Report protein stability index for PTVHVEVHQRGSSTAKKEDINLSV [TRIP13] please.
4.83

Report protein stability index for QIKTLLALSCHEQEMVVSSLVIGA [SLC2A12] please.
3.78

Report protein stability index for FAHHSLFLHVRKATRAMGLLNTLS [TMEM175] please.
2.6

Report protein stability index for FVHELHLSRLQRVKFCLLGALLAP [LPCAT4] please.
2.41

Report protein stability index for TRRLRLAHVGMELQLKQELAMLNA [SCARA5] please.
2.65

Report protein stability index for RTYGEPESAGPSRAVRQSVTSFPD [EMD] please.
4.92

Report protein stability index for HWTSAPLTEASAHSHPPEIKDQGG [MAP2] please.
5.14

Report protein stability index for ENDSTPTVSTSEVTSQQEPQIPVD [TAF7L] please.
5.53

Report protein stability index for AAKRMRLEIYQSSQDEPIALDKQH [NOL4L] please.
3.59

Report protein stability index for FLYSHGVPRTLSPHQYHSVHGVGM [TBX5] please.
2.31

Report protein stability index for NFEEMRALLDSLPPPVESELALFQ [KLHL14] please.
3.46

Report protein stability index for ARRKSELPQDPHTKKALEAHCRAD [PPP2R5C] please.
4.68

Report protein stability index for PPQPMVPLAVENQAGGEGAGGELG [PBXIP1] please.
5.52

Report protein stability index for LGGAIDFGAAYVLEQASSHIGNST [ATL3] please.
3.03

Report protein stability index for WRKRFRPREHHGRGGMLSASAETL [PPFIA4] please.
3.15

Report protein stability index for WYVCRTQGVEGDHCVTSDPATSPL [TRIM35] please.
3.15

Report protein stability index for PHQPVTAITRVSDRFSGETSAAAL [SMTNL2] please.
4.32

Report protein stability index for NSAMPFKILYDDGKMVEEVDGRAT [PTPRD] please.
4.69

Report protein stability index for KHSTIFDVGENLTVPDEFTVEERQ [SLC25A25] please.
5.07

Report protein stability index for QVTCLRTQVLEDSEDSFCRRHPGL [TRAF3IP2] please.
4.05

Report protein stability index for PQSPPSCRAPPPEARGIRAPPLPD [FCHO1] please.
4.92

Report protein stability index for AGPNGTLFVADAYKGLFEVNPWKR [APMAP] please.
2.39

Report protein stability index for FVLNRLQYAIISEAWRLVEEGIVS [CRYL1] please.
3.17

Report protein stability index for GPSEPGGTHPEDHQGHSDQHHHHH [RHOBTB2] please.
5.65

Data provenance is the supplement of paper PMC10567573.
